The reported numbers originate from patent US20240059759A1.

Biological target: SARS-CoV-2 Spike RBD-His Tag, Sino Biological (SARS-CoV-2)
Overview of reported xmid (log10) across a group of binders:

{"binder": "vhh_tstrep_sars2_pjl1_L_117 (VHH) VHH: QVQLQESGGGLVQAGGSLRLSCAASGRTFSEYAMGWFRQAPGKEREFVATISWSGGATYHTWSVKGRFTISRDNAKNTVYLQMNSLKPDDTAVYYCAAAGLGTVVSEWDYDYDYWGQGTQVTVSS", "xmid (log10)": -1.5}
{"binder": "vhh_tstrep_sars2_pjl1_L_150 (VHH) VHH: QVQLQESGGGLVQAGGSLRLSCAASGRTFSEYAMGWFRQAPGKEREFVATISWSGGAGYHTDSVKGRFTISRDNAKNTVYLQMNSLKPDDTAVYYCAAAGLGTVVSEWDYDYDYWGQGTQVTVSS", "xmid (log10)": 0.171}
{"binder": "vhh_tstrep_sars2_pjl1_L_112 (VHH) VHH: QVQLQESGGGLVQAGGSLRLSCAASGRTFSEYAMGWFRQAPGKEREFVATISWSGGATYHTDTVKGRFTISRDNAKNTVYLQMNSLKPDDTAVYYCAAAGLGTVVSEWDYDYDYWGQGTQVTVSS", "xmid (log10)": -1.27}
{"binder": "vhh_tstrep_sars2_pjl1_L_145 (VHH) VHH: QVQLQESGGGLVQAGGSLRLSCAASGRTFSEYAMGWFRQAPGKEREFVATISLSGGATYHTDSVKGRFTISRDNAKNTVYLQMNSLKPDDTAVYYCAAAGLGTVVSEWDYDYDYWGQGTQVTVSS", "xmid (log10)": 0.668}
{"binder": "vhh_tstrep_sars2_pjl1_L_114 (VHH) VHH: QVQLQESGGGLVQAGGSLRLSCAASGRTFSEYAMGWFRQAPGKEREFVATISWSGGATYHTDSVKGRFTISRDNAKNTVYLQMNSLKPDDTAVYYCAPAGLGTVVSEWDYDYDYWGQGTQVTVSS", "xmid (log10)": 0.526}
